Test system: Saccharomyces cerevisiae;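 further: PSI is a weighted mean of sequencing reads over stability bins, variants kept only with over 10 reads, mCherry proximal and sfGFP distal, peptide attached via GGGS linker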
Assay: protein stability index of tFT-peptide fusion (C-terminal peptide) (PSI (0-1 scale)); higher = more stable (slower turnover)
Details: genetic background: wild type; temperature: 30 C
Listed here: items and their measured protein stability index.
measured_metric: protein stability index

[[record]]
sequence_content = "KGCRYVGARHEG"
measured_metric = "protein stability index"
reported_measurement = 0.698

[[record]]
sequence_content = "PPPPRPLPPAPP"
measured_metric = "protein stability index"
reported_measurement = 0.63

[[record]]
sequence_content = "AGQGGWREAGGG"
measured_metric = "protein stability index"
reported_measurement = 0.676

[[record]]
sequence_content = "GEVRHCRVTVIA"
measured_metric = "protein stability index"
reported_measurement = 0.539

[[record]]
sequence_content = "PMIENQQIDKTN"
measured_metric = "protein stability index"
reported_measurement = 0.649

[[record]]
sequence_content = "PPPPPPPPPLPR"
measured_metric = "protein stability index"
reported_measurement = 0.657

[[record]]
sequence_content = "SPPLPPPARLPA"
measured_metric = "protein stability index"
reported_measurement = 0.615

[[record]]
sequence_content = "GFGKRGKDQDTY"
measured_metric = "protein stability index"
reported_measurement = 0.595

[[record]]
sequence_content = "GEVLWAVLLVSC"
measured_metric = "protein stability index"
reported_measurement = 0.299

[[record]]
sequence_content = "RYHQNTKKTSDI"
measured_metric = "protein stability index"
reported_measurement = 0.712

[[record]]
sequence_content = "PPPPDPWTSPRP"
measured_metric = "protein stability index"
reported_measurement = 0.734

[[record]]
sequence_content = "PERFHLVCWVGR"
measured_metric = "protein stability index"
reported_measurement = 0.712

[[record]]
sequence_content = "GGRFPGGGGRRR"
measured_metric = "protein stability index"
reported_measurement = 0.583

[[record]]
sequence_content = "VDLVSRVVFQDR"
measured_metric = "protein stability index"
reported_measurement = 0.723

[[record]]
sequence_content = "LGVLGGWRRFGV"
measured_metric = "protein stability index"
reported_measurement = 0.72

[[record]]
sequence_content = "LRGPRRAVEGTP"
measured_metric = "protein stability index"
reported_measurement = 0.66

[[record]]
sequence_content = "MGWGALGARGLV"
measured_metric = "protein stability index"
reported_measurement = 0.683

[[record]]
sequence_content = "SLSGPDIRLKPF"
measured_metric = "protein stability index"
reported_measurement = 0.673

[[record]]
sequence_content = "PPPHPPPATFLS"
measured_metric = "protein stability index"
reported_measurement = 0.479

[[record]]
sequence_content = "HTPAPLPPPLHP"
measured_metric = "protein stability index"
reported_measurement = 0.691

[[record]]
sequence_content = "SPQPSLPFLPPL"
measured_metric = "protein stability index"
reported_measurement = 0.668

[[record]]
sequence_content = "PFPPLPPPPSPC"
measured_metric = "protein stability index"
reported_measurement = 0.71

[[record]]
sequence_content = "VFFFFSLVNFRV"
measured_metric = "protein stability index"
reported_measurement = 0.486

[[record]]
sequence_content = "PPPLPLSTPPPL"
measured_metric = "protein stability index"
reported_measurement = 0.671

[[record]]
sequence_content = "ALWFVLISILCL"
measured_metric = "protein stability index"
reported_measurement = 0.378

[[record]]
sequence_content = "THTPPPHRPSNR"
measured_metric = "protein stability index"
reported_measurement = 0.682

[[record]]
sequence_content = "TRGTRGWGSVVG"
measured_metric = "protein stability index"
reported_measurement = 0.735

[[record]]
sequence_content = "NRSMFSSQNDNA"
measured_metric = "protein stability index"
reported_measurement = 0.671

[[record]]
sequence_content = "RVALVCGLGCIF"
measured_metric = "protein stability index"
reported_measurement = 0.683

[[record]]
sequence_content = "ILSPDRTHANET"
measured_metric = "protein stability index"
reported_measurement = 0.665

[[record]]
sequence_content = "RLRRLYSLRTYL"
measured_metric = "protein stability index"
reported_measurement = 0.543

[[record]]
sequence_content = "AYDIIPGKFKKI"
measured_metric = "protein stability index"
reported_measurement = 0.652

[[record]]
sequence_content = "PPSSTAALPPLP"
measured_metric = "protein stability index"
reported_measurement = 0.609

[[record]]
sequence_content = "PPPPPRFSPHPP"
measured_metric = "protein stability index"
reported_measurement = 0.695

[[record]]
sequence_content = "PPPPPAPPPQPS"
measured_metric = "protein stability index"
reported_measurement = 0.699

[[record]]
sequence_content = "TSSYFVLFLTSP"
measured_metric = "protein stability index"
reported_measurement = 0.635

[[record]]
sequence_content = "LAPPPPAPPMSP"
measured_metric = "protein stability index"
reported_measurement = 0.717

[[record]]
sequence_content = "NDFFVVFSVGEC"
measured_metric = "protein stability index"
reported_measurement = 0.613

[[record]]
sequence_content = "EQGAGFWVGGEV"
measured_metric = "protein stability index"
reported_measurement = 0.757

[[record]]
sequence_content = "VYVVLGTVYVTY"
measured_metric = "protein stability index"
reported_measurement = 0.273

[[record]]
sequence_content = "VPFFLSNSSHIK"
measured_metric = "protein stability index"
reported_measurement = 0.679

[[record]]
sequence_content = "TTSRADKEPFRL"
measured_metric = "protein stability index"
reported_measurement = 0.675

[[record]]
sequence_content = "IVVWCGIRYSIR"
measured_metric = "protein stability index"
reported_measurement = 0.366

[[record]]
sequence_content = "SVSLSLLFFLPF"
measured_metric = "protein stability index"
reported_measurement = 0.675

[[record]]
sequence_content = "NKVLHPGGKPLT"
measured_metric = "protein stability index"
reported_measurement = 0.664

[[record]]
sequence_content = "KQKARRARGKEG"
measured_metric = "protein stability index"
reported_measurement = 0.65

[[record]]
sequence_content = "PRGYRGNCAYDV"
measured_metric = "protein stability index"
reported_measurement = 0.636

[[record]]
sequence_content = "SPRPTRCGQNSM"
measured_metric = "protein stability index"
reported_measurement = 0.69

[[record]]
sequence_content = "VGPLIGQVGIDT"
measured_metric = "protein stability index"
reported_measurement = 0.748

[[record]]
sequence_content = "GKRTVLFTRCRQ"
measured_metric = "protein stability index"
reported_measurement = 0.589

[[record]]
sequence_content = "SLAPPPPLLILR"
measured_metric = "protein stability index"
reported_measurement = 0.335

[[record]]
sequence_content = "GLRAAGCRAVGG"
measured_metric = "protein stability index"
reported_measurement = 0.672

[[record]]
sequence_content = "PSPFPCVFRFSA"
measured_metric = "protein stability index"
reported_measurement = 0.635

[[record]]
sequence_content = "LVGLNNSFVSKA"
measured_metric = "protein stability index"
reported_measurement = 0.645

[[record]]
sequence_content = "LLRGDVVALRAH"
measured_metric = "protein stability index"
reported_measurement = 0.618

[[record]]
sequence_content = "SCVGCLYMYWSL"
measured_metric = "protein stability index"
reported_measurement = 0.61

[[record]]
sequence_content = "FGAHVGWHEASP"
measured_metric = "protein stability index"
reported_measurement = 0.705

[[record]]
sequence_content = "RRTSPNKNLKNQ"
measured_metric = "protein stability index"
reported_measurement = 0.618

[[record]]
sequence_content = "PRAPHATGYNRR"
measured_metric = "protein stability index"
reported_measurement = 0.702

[[record]]
sequence_content = "PRACPSSPASSL"
measured_metric = "protein stability index"
reported_measurement = 0.722

[[record]]
sequence_content = "LTRSIKVWRAMR"
measured_metric = "protein stability index"
reported_measurement = 0.686

[[record]]
sequence_content = "LLWPVFQCLPLL"
measured_metric = "protein stability index"
reported_measurement = 0.729

[[record]]
sequence_content = "KAIKNKQKFKEK"
measured_metric = "protein stability index"
reported_measurement = 0.726

[[record]]
sequence_content = "SRGLPRLLCPPP"
measured_metric = "protein stability index"
reported_measurement = 0.747

[[record]]
sequence_content = "PPPPPPSVLSPP"
measured_metric = "protein stability index"
reported_measurement = 0.722

[[record]]
sequence_content = "DVVFRLAFTDFC"
measured_metric = "protein stability index"
reported_measurement = 0.693

[[record]]
sequence_content = "KRIQGEICVPGA"
measured_metric = "protein stability index"
reported_measurement = 0.682

[[record]]
sequence_content = "DLILECRYEVGV"
measured_metric = "protein stability index"
reported_measurement = 0.667

[[record]]
sequence_content = "TIVFLLPSPRSY"
measured_metric = "protein stability index"
reported_measurement = 0.657

[[record]]
sequence_content = "PGLPCRNRMPFR"
measured_metric = "protein stability index"
reported_measurement = 0.687

[[record]]
sequence_content = "RLPSSSFSPHRA"
measured_metric = "protein stability index"
reported_measurement = 0.688

[[record]]
sequence_content = "IVFYWLAHRPCA"
measured_metric = "protein stability index"
reported_measurement = 0.63

[[record]]
sequence_content = "PIWWSRSALLAE"
measured_metric = "protein stability index"
reported_measurement = 0.671

[[record]]
sequence_content = "PLILRSLFIFPV"
measured_metric = "protein stability index"
reported_measurement = 0.641

[[record]]
sequence_content = "CRISHPPLGGGS"
measured_metric = "protein stability index"
reported_measurement = 0.652

[[record]]
sequence_content = "SPPFLPCLFHAS"
measured_metric = "protein stability index"
reported_measurement = 0.687

[[record]]
sequence_content = "ITMYAPEVDKRR"
measured_metric = "protein stability index"
reported_measurement = 0.709

[[record]]
sequence_content = "GRCRPATLRGPG"
measured_metric = "protein stability index"
reported_measurement = 0.656

[[record]]
sequence_content = "DTFLGSLFIFIR"
measured_metric = "protein stability index"
reported_measurement = 0.522

[[record]]
sequence_content = "GGCGGGGGVVVR"
measured_metric = "protein stability index"
reported_measurement = 0.703

[[record]]
sequence_content = "LIVWAGACGVSR"
measured_metric = "protein stability index"
reported_measurement = 0.611

[[record]]
sequence_content = "YLQESLVEMWIV"
measured_metric = "protein stability index"
reported_measurement = 0.65

